Data origin, for the record: PubChem BioAssay

ASSAY_DETAILS: growth suppression of yeast trafficking mutant, preliminary HTS, modulators of trafficking downstream of Golgi apparatus project, 1536-format plate, OD 615 nm (AID 637); further: test concentration not given here
APPLIED_CONDITIONS: yeast transport mutant growth, absorbance 615 nm, 18 h; active compounds read high
Provide the reported inhibition of each item.
Give the quantity in %, number only.

Form field inhibition, entry Oc1c(Cl)cc(Cl)cc1Sc1cc(Cl)cc(Cl)c1O : 100

Form field inhibition, entry Cc1nc(C)c(C(=O)Nc2ccc(Oc3ccccc3)cc2)o1 : -6.5

Form field inhibition, entry CCCCCc1c(C)nc(SCC(=O)O)[nH]c1=O : -3.39

Form field inhibition, entry CSc1ccccc1NC(=O)CN(c1ccccc1)S(=O)(=O)N(C)C : 0.18

Form field inhibition, entry C[C@H](CCC(=O)O)[C@H]1CC[C@H]2[C@@H]3C(=O)C[C@@H]4CC(=O)CC[C@]4(C)[C@H]3CC(=O)[C@]12C : -0.83
